target: Replicase polyprotein 1a (Severe acute respiratory syndrome-related coronavirus, UniProt P0C6U8); assay: Inhibition of SARS-CoV 3CLpro expressed in Escherichia coli BL21 (DE3) after 2 hrs by FRET assay

Smiles input | IC50 / µM
CN(C)CCCSc1ccccc1NC(=O)/C=C/c1ccccc1 | 5

###

Recorded inhibition, one value per entry.
target: Replicase polyprotein 1a (Severe acute respiratory syndrome-related coronavirus); test: Inhibition of SARS-CoV 3CLpro expressed in Escherichia coli BL21 (DE3) at 100 uM by FRET assay in presence of 0.01% Triton X-100

Compound | Target or test system | inhibition
CC(C)(C)NC(=O)C(c1cccnc1)N(C(=O)CC(F)(F)F)c1ccc(C(C)(C)C)cc1 (centres undefined) | Replicase polyprotein 1a (Severe acute respiratory syndrome-related coronavirus) | 57%
Cc1ccc(C(C(=O)NC(C)(C)C)N(C(=O)c2ccco2)c2ccc(C(C)(C)C)cc2)cn1 (centres undefined) | Replicase polyprotein 1a (Severe acute respiratory syndrome-related coronavirus) | < 15%
COCC(=O)N(c1ccc(C(C)(C)C)cc1)C(C(=O)NC(C)(C)C)c1cccnc1 (centres undefined) | Replicase polyprotein 1a (Severe acute respiratory syndrome-related coronavirus) | > 49%
CC(C)(C)NC(=O)C(c1cccnc1)N(C(=O)C1=NC=NC1)c1ccc(C(C)(C)C)cc1 (centres undefined) | Replicase polyprotein 1a (Severe acute respiratory syndrome-related coronavirus) | > 49%
CC(C)(C)NC(=O)C(c1cccnc1)N(C(=O)c1ncco1)c1ccc(C(C)(C)C)cc1 (centres undefined) | Replicase polyprotein 1a (Severe acute respiratory syndrome-related coronavirus) | > 49%
CC(C)(C)NC(=O)C(c1cc[nH]n1)N(C(=O)c1ccco1)c1ccc(C(C)(C)C)cc1 (centres undefined) | Replicase polyprotein 1a (Severe acute respiratory syndrome-related coronavirus) | < 15%
CC(C)(C)NC(=O)C(c1cccnc1)N(C(=O)c1cccs1)c1ccc(C(C)(C)C)cc1 (centres undefined) | Replicase polyprotein 1a (Severe acute respiratory syndrome-related coronavirus) | > 49%
CC(C)(C)NC(=O)C(c1cccnc1)N(C(=O)c1ccc[nH]1)c1ccc(C(C)(C)C)cc1 (centres undefined) | Replicase polyprotein 1a (Severe acute respiratory syndrome-related coronavirus) | > 49%
